# Measured target: T1, biotinylated CRH (human and mouse, UniProt P01143 145-185 (rat entry), not fully specified; biotin; which end is not stated for the result (NT-biotin and CT-biotin forms were used))
# T1 construct: also called biotin-CRH; CRH (NT biotin)
# T1 peptide: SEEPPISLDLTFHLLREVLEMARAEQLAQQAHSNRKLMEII
# Experimental protocol: ELISA, CRH (NT biotin)
# Procedure: Streptavidin (Thermo, Cat: 21125) was diluted in PBS to a concentration of 2 μg/ml. 100 μl of diluted streptavidin was added per well to ELISA microplates, and the plates were incubated overnight at 4° C. […] 100 μL of ELISA stopping solution (Solarbio, Cat #: C1058) was added to terminate the reaction, and the optical density at 450 nm (OD450 nm) was determined by an ELISA plate reader (Molecular Devices, Spectra max 384 plus).
Measure name: EC50 (read off the curve)

1. PR302341-34 (antibody, human IgG1, kappa, V domains shown) VH: QVQLVQSGAEVKKPGASVKVSCKASGYTFTDYFMKWVRQAPGQGLEWMGVINPNQGDIFYNQKFKGRVTMTVDKSISTAYMELSRLRSDDTAVYYCARGTDRALFAYWGQGTLVTVSS VL: DVVMTQSPLSLPVTLGQPASISCRSGQSIVHSDANTYLEWYQQRPGQSPRLLIYKVSNRFSGVPDRFSGSGSGTDFTLKISRVEAEDLGVYYCFQGSHIPWTFGGGTKVEIKR = ~0.03 nM
